- protocol_notes: Transmission electron microscopy of N-X-Phe-DAP/siRNA nanoparticles
- Type: physicochemical
- study_conditions: N-X-Phe-DAP/siRNA nanoparticles; 5 μM derivative, 30 nM siRNA; ± standard deviation
readout_name: Diameter (nm), TEM

>>> observed_result("NCCCNC(=O)[C@H](Cc1ccccc1)NC(=O)OCC1c2ccccc2-c2ccccc21 [Fmoc-Phe-DAP]")
136
>>> observed_result("NCCCNC(=O)[C@H](Cc1ccccc1)NC(=O)C1CCCCC1 [Cyc-Phe-DAP]")
71
>>> observed_result("NCCCNC(=O)[C@H](Cc1c(F)c(F)c(F)c(F)c1F)NC(=O)OCC1c2ccccc2-c2ccccc21 [Fmoc-F5-Phe-DAP]")
140
>>> observed_result("NCCCNC(=O)[C@H](Cc1ccccc1)NC(=O)Cc1cccc2ccccc12 [1-Nap-Phe-DAP]")
211

(P) NCCCNC(=O)[C@H](Cc1ccccc1)NC(=O)Cc1ccc2ccccc2c1 [2-Nap-Phe-DAP]
(Q) NCCCNC(=O)[C@H](Cc1ccccc1)NC(=O)CC1c2ccccc2-c2ccccc21 [Fm-Phe-DAP]
Hi, I'm comparing two records. Which one has the lower Diameter (nm), TEM, P or Q ? Use the label to indicate which entry you chose.
Q
(Q: 163 nm, P: 450 nm)
